pIC50: −log10 of the molar value.
BRD4 (Homo sapiens, UniProt O60885) measurements of pIC50, listed per entry.

I am curious: what pIC50 value has been reported for Cc1noc(C)c1-c1cc(C(N)=O)c2c(c1)c1c(S(C)(=O)=O)cccc1n2CC1CC1 ?
> 7.30

Another compound to check: Cc1noc(C)c1-c1cc(C(N)=O)c2c(c1)c1ccc(C(C)(C)O)cc1n2S(=O)(=O)C1CC1
> 7.30

What would you report for Cc1noc(C)c1-c1cc(C(N)=O)c2c(c1)c1ccc(N)cc1n2CC1CC1 ?
> 6.30

Now give it for Cc1nocc1-c1cc(C(N)=O)c2c(c1)c1ccc(C(=O)N3C[C@@H](C)O[C@@H](C)C3)cc1n2CC1CC1 too.
> 6.30

And what about the compound Cc1noc(C)c1-c1cc(C(N)=O)c2c(c1)c1ccc(C(=O)N3CCOCC3)cc1n2CC1CC1 ?
> 7.30

Same for CNc1ccc2c3cc(-c4c(C)noc4C)cc(C(N)=O)c3n(CC3CC3)c2c1
> 6.30

And Cc1noc(C)c1-c1cc(C(N)=O)c2c(c1)c1ccc(CN3CCOCC3)cc1n2CC1CC1 ?
> 6.30

// query: Cc1noc(C)c1-c1cc(C(N)=O)c2c(c1)c1ccc(C(=O)N3CC(F)C3)cc1n2S(=O)(=O)C1CC1
> 7.30

---

Values of IC50 reported for BRD4 (Homo sapiens, UniProt O60885) appear below.

Report IC50 for CC(=O)Nc1ccc2c3cc(-c4c(C)noc4C)cc(C(N)=O)c3n(CC3CC3)c2c1 [Example 29] tested on BRD4 (Homo sapiens, UniProt O60885).
< 500 nM

Ok, now Cc1noc(C)c1-c1cc(C(N)=S)c2[nH]c3cc(C(=S)N4CCOCC4)ccc3c2c1 [Example 63]
< 500 nM

Repeat with Cc1noc(C)c1-c1cc(C(N)=O)c2c(c1)c1ccc(C(=O)N3CCC(F)(F)CC3)cc1n2S(C)(=O)=O [Example 9]
< 50 nM

Try the molecule Cc1noc(C)c1-c1cc(C(N)=O)c2c(c1)c1ccc(C(C)(C)N3CCOCC3)cc1n2CC1CC1 [Example 52]
< 50 nM

What do you get for Cc1noc(C)c1-c1cc(C(N)=S)c2c(c1)c1ccc(C(=O)N3CCOCC3)cc1n2CC1CC1 [Example 68] ?
< 5000 nM

Now consider Cc1noc(C)c1-c1cc(C(N)=S)c2[nH]c3cc(C(=O)N4CCOCC4)ccc3c2c1 [Example 64] .
< 5000 nM

Then Cc1noc(C)c1-c1cc(C(N)=O)c2c(c1)c1ccc(C(=O)N3C(C)(C)CC(O)CC3(C)C)cc1n2S(C)(=O)=O [Example 16] ?
< 50 nM

Now the molecule CCNC(=O)n1c2cc(C(=O)N3C[C@@H](C)O[C@@H](C)C3)ccc2c2cc(-c3c(C)noc3C)cc(C(N)=O)c21 [Example 61]
< 5000 nM

Please do the same for Cc1noc(C)c1-c1cc(C(N)=O)c2c(c1)c1c(C(=O)N3C[C@@H](C)O[C@@H](C)C3)cc(OC(F)(F)F)cc1n2S(C)(=O)=O [Example 76] as well.
< 50 nM

Lookup Cc1noc(C)c1-c1cc(C(N)=O)c2c(c1)c1ccc(-c3ccncc3)cc1n2CC1CC1 [Example 36]
< 500 nM

And the next one, Cc1noc(C)c1-c1cc(C(N)=O)c2c(c1)c1ccc(C(=O)N3CCC(N(C)C)C3)cc1n2S(C)(=O)=O (stereo not drawn) [Example 18] ?
< 50 nM

What about Cc1noc(C)c1-c1cc(C(N)=O)c2c(c1)c1c(C(=O)N3C[C@@H](C)O[C@@H](C)C3)cc(C(F)(F)F)cc1n2S(C)(=O)=O [Example 73] ?
< 500 nM

What about this molecule? Cc1noc(C)c1-c1cc(C(N)=O)c2c(c1)c1ccc(C(=O)N3CCOCC3)cc1n2S(C)(=O)=O [Example 5]
< 50 nM

# repeat for CC(=O)N(C)c1ccc2c3cc(-c4c(C)noc4C)cc(C(N)=O)c3n(CC3CC3)c2c1 [Example 40]
< 50 nM

Can you check Cc1noc(C)c1-c1cc(C(N)=O)c2c(c1)c1ccc(C(=O)N3CCC(F)(F)CC3)cc1n2S(=O)(=O)C1CC1 [Example 26] next?
< 50 nM

---

target desc: UniProt O60885
test description: Time Resolved Fluorescence Resonance Energy Transfer (TR-FRET) binding assay
condition info: one of the FRET assays described (BRD4 construct not given)
measured metric: IC50

State the recorded IC50 for this entry: Cc1noc(C)c1-c1cc(C(N)=O)c2c(c1)c1ccc(C(C)(C)O)cc1n2CC1CC1
< 500 nM

Queued: Cc1noc(C)c1-c1cc(C(N)=O)c2c(c1)c1ccc(C(=O)N3C[C@@H](C)O[C@@H](C)C3)cc1n2S(=O)(=O)C1CC1
< 50 nM

Proceed to Cc1noc(C)c1-c1cc(C(N)=O)c2c(c1)c1ccc(C(=O)N3CCCOCC3)cc1n2S(=O)(=O)C1CC1
< 50 nM

// same read-out, input: Cc1noc(C)c1-c1cc(-c2nnc[nH]2)c2c(c1)c1ccc(C(=O)N3C[C@@H](C)O[C@@H](C)C3)cc1n2CC1CC1
< 500 nM

Query Cc1noc(C)c1-c1cc(C(N)=O)c2c(c1)c1ccc(C(=O)N3CCC(C#N)CC3)cc1n2S(=O)(=O)C1CC1 next
< 50 nM

Param item: Cc1noc(C)c1-c1cc(C(N)=O)c2c(c1)c1ccc(N(C)C)cc1n2CC1CC1
< 50 nM

What would you report for Cc1csc(-c2cc(-c3c(C)noc3C)cc3c2[nH]c2cc(C(=O)N4CCOCC4)ccc23)n1 ?
< 5000 nM

---

Reported IC50, BRD4 (Homo sapiens).

Would you kindly share the measured IC50 for Cc1noc(C)c1-c1cc(-c2nc[nH]n2)c2[nH]c3cc(C(=O)N4CCOCC4)ccc3c2c1 [Example 69] ?
< 500 nM

Further, for COc1ccc2c(c1)c1cc(-c3c(C)noc3C)cc(C(N)=O)c1n2S(C)(=O)=O [Example 72] ?
< 500 nM

Repeat for the following molecule: Cc1noc(C)c1-c1cc(C(N)=O)c2c(c1)c1ccc(C(=O)N3CNC(=O)C3)cc1n2S(C)(=O)=O [Example 19]
< 500 nM

Input Cc1noc(C)c1-c1cc(C(N)=O)c2c(c1)c1ccc(NCC3CCCC3)cc1n2CC1CC1 [Example 39]
< 500 nM

---

Would you kindly list pIC50 for each of these compounds?
target desc: BRD4 (Homo sapiens, UniProt O60885)
pIC50: −log10 of the molar value.

Data request, read-out pIC50, for Cc1noc(C)c1-c1cc(C(N)=O)c2c(c1)c1cc(Br)c(Br)cc1n2CC1CC1
> 6.30

Another compound: Cc1noc(C)c1-c1cc(C(N)=O)c2c(c1)c1ccc(C(=O)N3C[C@@H](C)O[C@@H](C)C3)cc1n2CC1CC1
> 7.30

Cool, now Cc1noc(C)c1-c1cc(C(N)=O)c2c(c1)c1cc(C(=O)N3CCOCC3)ccc1n2S(=O)(=O)C1CC1
> 7.30

Now consider Cc1noc(C)c1-c1cc(C(N)=O)c2[nH]c3cc(C(=O)N4CCCCC4)ccc3c2c1 and answer again.
> 6.30

Please give the result for Cc1oncc1-c1cc(C(N)=O)c2c(c1)c1ccc(C(=O)N3C[C@@H](C)O[C@@H](C)C3)cc1n2CC1CC1 too.
> 6.30

Now try Cc1n[nH]c(C)c1-c1cc(C(N)=O)c2c(c1)c1ccc(C(=O)N3C[C@@H](C)O[C@@H](C)C3)cc1n2CC1CC1 .
> 6.30

Now consider Cc1noc(C)c1-c1cc(C(N)=O)c2c(c1)c1ccc(C(=O)N3CCCOCC3)cc1n2S(C)(=O)=O .
> 7.30

# iterate: Cc1noc(C)c1-c1cc(C(N)=O)c2c(c1)c1ccc(N3CCOC3=O)cc1n2CC1CC1
> 6.30

Quick one: Cc1noc(C)c1-c1cc(C(N)=O)c2c(c1)c1ccc(OC(=O)N3CCOCC3)cc1n2CC1CC1
> 6.30

And what about the compound Cc1noc(C)c1-c1cc(C(N)=O)c2c(c1)c1ccc(C(=O)N3CC(F)(F)C3)cc1n2S(C)(=O)=O ?
> 7.30

And Cc1noc(C)c1-c1cc(C(N)=O)c2c(c1)c1ccc(S(C)(=O)=O)cc1n2CC1CC1 ?
> 7.30

And what about the compound Cc1noc(C)c1-c1cc(C#N)c2c(c1)c1ccc(C(=O)N3CCOCC3)cc1n2CC1CC1 ?
> 5.30

Continue with CCn1c2cc(C(=O)N3CCOCC3)ccc2c2cc(-c3c(C)noc3C)cc(C(N)=S)c21
> 6.30

Same read-out for Cc1noc(C)c1-c1cc(C(N)=O)c2c(c1)c1ccc(C(=O)N3CC(F)C3)cc1n2S(C)(=O)=O ?
> 7.30

Do the same for Cc1noc(C)c1-c1cc(C(N)=O)c2c(c1)c1ccc(O)cc1n2CC1CC1 please
> 6.30

Repeat with Cc1noc(C)c1-c1cc(C(N)=O)c2c(c1)c1ccc(N3CCCCC3=O)cc1n2CC1CC1
> 6.30

Proceed to COC1CN(C(=O)c2ccc3c4cc(-c5c(C)noc5C)cc(C(N)=O)c4n(S(C)(=O)=O)c3c2)C1
> 7.30

// next record Cc1noc(C)c1-c1cc(C(N)=O)c2c(c1)c1ccc(Br)cc1n2CC1CC1
> 6.30

Can you check Cc1noc(C)c1-c1cc(C(N)=O)c2c(c1)c1ccc(C(=O)N3CCC(C#N)CC3)cc1n2S(C)(=O)=O next?
> 7.30

And the next one, Cc1cnc(-c2cc(-c3c(C)noc3C)cc3c2[nH]c2cc(C(=O)N4CCOCC4)ccc23)o1 ?
> 5.30
